Data provenance is patent US20180094053A1.

ASSAYED_TARGET: Recombinant human IL-2 (human, UniProt P60568 21-153)
ASSAY_DETAILS: cell-based or functional assay
MEASUREMENT_LABEL: pSTAT5a,b fold EC50 shift, CTLL-2 (muRαβγ) (fold)
Report the value in fold with no unit label.

Past entries and their recorded results:
{"columns": ["BINDER", "UNIT_DESCRIPTOR", "NUMERIC_VALUE"],
 "data": [
  ["XPA.92.019 (antibody, V domains shown, Tested as purified full-length human IgG; also called mAb19) VH: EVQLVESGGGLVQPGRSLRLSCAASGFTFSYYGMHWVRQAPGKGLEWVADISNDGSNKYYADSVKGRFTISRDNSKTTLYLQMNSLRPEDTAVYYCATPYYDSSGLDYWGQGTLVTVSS VL: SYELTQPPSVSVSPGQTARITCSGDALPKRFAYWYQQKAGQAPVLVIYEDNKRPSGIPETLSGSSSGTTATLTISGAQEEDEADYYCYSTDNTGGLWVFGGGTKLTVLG", "fold", 523],
  ["XPA.92.099 (antibody, V domains shown, Tested as purified full-length human IgG; also called mAb99; clone 99) VH: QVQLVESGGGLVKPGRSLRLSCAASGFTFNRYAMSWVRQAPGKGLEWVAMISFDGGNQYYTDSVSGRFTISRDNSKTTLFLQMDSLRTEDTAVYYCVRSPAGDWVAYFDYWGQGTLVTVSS VL: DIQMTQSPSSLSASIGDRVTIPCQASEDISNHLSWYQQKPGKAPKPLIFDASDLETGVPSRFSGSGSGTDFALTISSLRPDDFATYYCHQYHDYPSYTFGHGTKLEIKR", "fold", 293],
  ["XPA.92.041 (antibody, V domains shown, Tested as purified full-length human IgG) VH: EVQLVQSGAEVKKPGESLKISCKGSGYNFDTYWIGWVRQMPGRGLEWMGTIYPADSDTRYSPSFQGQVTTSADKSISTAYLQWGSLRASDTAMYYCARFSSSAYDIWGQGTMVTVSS VL: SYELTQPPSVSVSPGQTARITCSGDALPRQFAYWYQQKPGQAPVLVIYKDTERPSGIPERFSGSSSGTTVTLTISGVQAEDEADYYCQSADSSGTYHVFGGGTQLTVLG", "fold", 404]
]}

Let us move to another entry and its pSTAT5a,b fold EC50 shift, CTLL-2 (muRαβγ).
Entry XPA.92.042 (antibody, V domains shown, Tested as purified full-length human IgG) VH: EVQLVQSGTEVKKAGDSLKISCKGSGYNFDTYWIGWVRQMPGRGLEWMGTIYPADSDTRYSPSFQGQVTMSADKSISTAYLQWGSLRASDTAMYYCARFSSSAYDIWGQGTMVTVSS VL: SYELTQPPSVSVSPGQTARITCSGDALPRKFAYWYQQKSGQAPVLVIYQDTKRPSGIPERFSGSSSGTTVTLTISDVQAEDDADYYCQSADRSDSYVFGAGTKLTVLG : reported pSTAT5a,b fold EC50 shift, CTLL-2 (muRαβγ) = ?
793
